selectivity ratio values by entry
- Assay details: Selectivity index, ratio of CC50 for human A549 cells to IC50 for group 2 influenza A H7N1 pseudotyped virus infected in A549 cells
- Type: toxicity, cell-based
- Condition description: read-out: Ratio CC50/IC50

| Chemical string | Result |
| --- | --- |
| CCCCOc1ccc(-c2nc3ncccn3c2NCc2ccccn2)cc1 | > 6 |
| CCCCOc1ccc(-c2nc3ncccn3c2Nc2ccc(F)cc2)cc1 | > 67 |
| c1cnc2nc(-c3ccc(OC4CCCC4)cc3)c(NC3CCCCC3)n2c1 | 57 |
| Clc1ccc(-c2nc3ncccn3c2NC2CCCCC2)cc1 | > 670 |
| FC(F)(F)c1cc(Br)ccc1-c1nc2ncccn2c1NC1CCCCC1 | 18 |
| Nc1c(-c2ccc(Br)cc2)nc2ncccn12 | > 1 |

Now, please, on to the next compound.
**Q:** Fill in the blank: the reported selectivity ratio of "Cc1cc(C)n2c(Nc3ccc4c(c3)OCCO4)c(-c3cccc(Br)c3)nc2n1" is ____.
**A:** > 400

Origin of values: ChEMBL document CHEMBL5108080
